Target: UniProt:Q9UM73
Details: read-out: IC50 (nM), ALK inhibition activity; HTRF, ATP at Km
assay metric: IC50
Numeric answer plus unit only.

Prompt: Please give the measured IC50 for this molecule: COc1cc(N2CCNC[C@@H]2C)ncc1-c1cnc(N)c(O[C@H](C)c2c(Cl)ccc(F)c2Cl)c1
Completion: 1.96 nM

====

Assay: in vivo
Settings: Sprague-Dawley, rat, po, 5 mg/kg
assay metric: Tmax

Prompt: Please give the measured Tmax for this compound: COc1cc(-c2cnc(N)c(O[C@H](C)c3c(Cl)ccc(F)c3Cl)c2)cnc1C1=CCNCC1 [Example 30]
Completion: 3 h

====

Assay: in vivo
Details: Sprague-Dawley, rat, po, 5 mg/kg
assay metric: AUC(0-inf) (ng·h/mL)
Quick note: give the figure in ng·h/mL, leave out the unit.

Prompt: Please give the measured AUC(0-inf) for this molecule: COc1cc(-c2cnc(N)c(O[C@H](C)c3c(Cl)ccc(F)c3Cl)c2)cnc1C1=CCNCC1 [Example 30]
Completion: 1270

====

Experiment: In vivo pharmacokinetics in SD rats
Conditions: Sprague-Dawley, rat, po, 5 mg/kg
assay metric: AUC(0-inf) (ng·h/mL)
Quick note: give the figure in ng·h/mL, leave out the unit.

CCOc1cc(N2CCNC[C@@H]2C)ncc1-c1cnc(N)c(O[C@H](C)c2c(Cl)ccc(F)c2Cl)c1 :: 830

We now examine a further molecule.
Prompt: Please give the measured AUC(0-inf) for this molecule: COc1cc(N2CCNC[C@@H]2C)ncc1-c1cnc(N)c(O[C@H](C)c2c(Cl)ccc(F)c2Cl)c1
Completion: 601

====

Target: L1196M mutated ALK kinase (Homo sapiens (Human), UniProt Q9UM73, L1196M)
Sequence (Q9UM73 19-1620 L1196M): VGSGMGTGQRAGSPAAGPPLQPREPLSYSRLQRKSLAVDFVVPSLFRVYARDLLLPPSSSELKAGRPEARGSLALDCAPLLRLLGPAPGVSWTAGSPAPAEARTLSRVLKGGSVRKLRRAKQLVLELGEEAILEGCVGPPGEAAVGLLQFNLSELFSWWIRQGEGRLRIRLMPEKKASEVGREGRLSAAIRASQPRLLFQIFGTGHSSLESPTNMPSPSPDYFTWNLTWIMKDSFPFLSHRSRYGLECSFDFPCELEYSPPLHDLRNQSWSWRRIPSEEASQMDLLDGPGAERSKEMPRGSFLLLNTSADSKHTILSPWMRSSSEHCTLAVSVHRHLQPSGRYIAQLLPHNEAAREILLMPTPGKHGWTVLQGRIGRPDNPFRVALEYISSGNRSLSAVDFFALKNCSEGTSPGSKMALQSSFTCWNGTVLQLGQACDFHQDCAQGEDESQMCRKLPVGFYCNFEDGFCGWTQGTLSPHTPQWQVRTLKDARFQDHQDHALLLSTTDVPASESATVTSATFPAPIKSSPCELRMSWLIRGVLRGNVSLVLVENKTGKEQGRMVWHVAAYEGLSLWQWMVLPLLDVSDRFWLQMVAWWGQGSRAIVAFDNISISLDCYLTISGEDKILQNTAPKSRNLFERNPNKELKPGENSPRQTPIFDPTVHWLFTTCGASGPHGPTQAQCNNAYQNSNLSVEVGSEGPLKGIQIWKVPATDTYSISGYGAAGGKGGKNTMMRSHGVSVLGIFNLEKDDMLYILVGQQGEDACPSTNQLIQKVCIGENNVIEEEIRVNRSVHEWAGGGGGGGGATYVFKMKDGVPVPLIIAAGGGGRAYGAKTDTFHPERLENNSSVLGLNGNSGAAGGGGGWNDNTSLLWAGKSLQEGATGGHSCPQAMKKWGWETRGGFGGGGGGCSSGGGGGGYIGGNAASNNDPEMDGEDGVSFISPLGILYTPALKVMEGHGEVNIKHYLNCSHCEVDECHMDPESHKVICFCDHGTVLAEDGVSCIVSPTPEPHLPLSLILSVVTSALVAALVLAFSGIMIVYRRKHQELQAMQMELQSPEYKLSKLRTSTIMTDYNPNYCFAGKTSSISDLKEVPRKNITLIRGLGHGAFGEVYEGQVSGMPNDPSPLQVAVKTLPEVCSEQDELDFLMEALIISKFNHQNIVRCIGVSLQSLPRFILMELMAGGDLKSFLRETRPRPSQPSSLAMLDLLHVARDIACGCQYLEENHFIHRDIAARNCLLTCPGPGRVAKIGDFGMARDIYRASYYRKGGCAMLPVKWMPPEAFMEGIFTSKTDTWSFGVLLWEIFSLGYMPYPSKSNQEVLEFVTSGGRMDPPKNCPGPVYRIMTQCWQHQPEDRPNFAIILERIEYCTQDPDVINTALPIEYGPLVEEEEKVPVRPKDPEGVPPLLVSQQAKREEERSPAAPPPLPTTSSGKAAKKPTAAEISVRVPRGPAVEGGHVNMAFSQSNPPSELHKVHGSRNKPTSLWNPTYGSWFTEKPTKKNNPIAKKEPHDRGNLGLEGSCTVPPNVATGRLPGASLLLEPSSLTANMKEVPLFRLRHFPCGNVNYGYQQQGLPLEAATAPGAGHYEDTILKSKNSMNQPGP
Assay: biochemical
assay metric: pIC50
Note on units: pIC50 is unitless, being -log10 of a concentration expressed in mol/L.

Prompt: Please give the measured pIC50 for this compound: COc1cc(N2CCNC[C@@H]2C)ncc1-c1cnc(N)c(O[C@H](C)c2c(Cl)ccc(F)c2Cl)c1
Completion: 7.45

====

Entries and their half-life
Experiment: In vivo pharmacokinetics in SD rats
Conditions: Sprague-Dawley, rat, po, 5 mg/kg
Numeric answer plus unit only.

COc1cc(N2CCNC[C@@H]2C)ncc1-c1cnc(N)c(O[C@H](C)c2c(Cl)ccc(F)c2Cl)c1 [Example 27] :: 5.45 h

Prompt: Please give the measured half-life for this molecule: CCOc1cc(N2CCNC[C@@H]2C)ncc1-c1cnc(N)c(O[C@H](C)c2c(Cl)ccc(F)c2Cl)c1 [Example 53]
Completion: 4.75 h

====

Experiment: in vivo
Conditions: Sprague-Dawley, rat, po, 5 mg/kg
assay metric: Cmax (ng/mL)
Quick note: give the figure in ng/mL, leave out the unit.

Prompt: Please give the measured Cmax for this compound: COc1cc(-c2cnc(N)c(O[C@H](C)c3c(Cl)ccc(F)c3Cl)c2)cnc1C1=CCNCC1
Completion: 113

====

Assay: in vivo
Settings: Sprague-Dawley, rat, po, 5 mg/kg
assay metric: half-life (min)
Quick note: give the figure in min, leave out the unit.

Prompt: Please give the measured half-life for this molecule: COc1cc(-c2cnc(N)c(O[C@H](C)c3c(Cl)ccc(F)c3Cl)c2)cnc1C1=CCNCC1
Completion: 266

====

Target: G1269S mutated ALK kinase (Homo sapiens (Human), UniProt Q9UM73, G1269S)
Sequence (Q9UM73 19-1620 G1269S): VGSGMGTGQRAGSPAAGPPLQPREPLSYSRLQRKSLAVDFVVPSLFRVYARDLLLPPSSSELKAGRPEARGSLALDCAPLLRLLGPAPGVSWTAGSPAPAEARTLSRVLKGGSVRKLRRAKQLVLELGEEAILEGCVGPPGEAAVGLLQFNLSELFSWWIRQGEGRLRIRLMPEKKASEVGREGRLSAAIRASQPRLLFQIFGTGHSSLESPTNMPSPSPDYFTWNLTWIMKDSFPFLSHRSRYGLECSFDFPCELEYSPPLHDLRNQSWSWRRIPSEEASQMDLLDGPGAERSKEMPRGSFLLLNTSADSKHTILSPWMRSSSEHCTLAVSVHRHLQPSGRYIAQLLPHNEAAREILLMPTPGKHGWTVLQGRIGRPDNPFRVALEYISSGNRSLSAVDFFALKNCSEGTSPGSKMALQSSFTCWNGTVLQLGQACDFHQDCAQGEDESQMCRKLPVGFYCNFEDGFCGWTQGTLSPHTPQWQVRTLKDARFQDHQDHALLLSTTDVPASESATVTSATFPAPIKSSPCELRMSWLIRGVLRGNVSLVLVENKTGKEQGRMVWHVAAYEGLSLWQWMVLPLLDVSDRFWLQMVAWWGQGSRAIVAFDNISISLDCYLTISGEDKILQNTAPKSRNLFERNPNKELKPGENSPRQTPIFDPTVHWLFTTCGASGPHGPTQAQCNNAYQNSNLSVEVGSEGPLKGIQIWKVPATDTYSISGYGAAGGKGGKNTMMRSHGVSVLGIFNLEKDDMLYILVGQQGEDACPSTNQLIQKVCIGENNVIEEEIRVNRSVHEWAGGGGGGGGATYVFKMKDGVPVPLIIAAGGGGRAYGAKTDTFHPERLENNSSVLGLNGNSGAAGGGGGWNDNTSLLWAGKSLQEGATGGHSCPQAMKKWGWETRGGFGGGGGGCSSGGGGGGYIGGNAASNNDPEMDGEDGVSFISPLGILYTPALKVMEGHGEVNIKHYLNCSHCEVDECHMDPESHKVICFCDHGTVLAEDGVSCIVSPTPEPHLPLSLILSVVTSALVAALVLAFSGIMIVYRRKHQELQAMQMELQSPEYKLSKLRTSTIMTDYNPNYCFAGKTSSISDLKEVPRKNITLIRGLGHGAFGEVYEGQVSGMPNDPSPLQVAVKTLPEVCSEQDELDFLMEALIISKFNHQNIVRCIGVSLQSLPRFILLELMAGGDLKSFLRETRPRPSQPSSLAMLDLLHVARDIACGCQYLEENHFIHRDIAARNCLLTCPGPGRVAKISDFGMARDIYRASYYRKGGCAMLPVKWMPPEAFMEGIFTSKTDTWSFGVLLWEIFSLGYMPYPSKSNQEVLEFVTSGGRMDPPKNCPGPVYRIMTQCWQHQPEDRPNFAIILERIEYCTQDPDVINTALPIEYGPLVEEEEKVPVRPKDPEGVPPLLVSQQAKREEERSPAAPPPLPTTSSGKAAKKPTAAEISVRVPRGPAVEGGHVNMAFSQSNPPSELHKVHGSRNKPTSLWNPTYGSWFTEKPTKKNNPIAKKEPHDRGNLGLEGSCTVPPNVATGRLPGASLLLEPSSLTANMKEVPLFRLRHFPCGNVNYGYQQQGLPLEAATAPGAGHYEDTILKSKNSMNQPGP
Assay: biochemical
assay metric: IC50 (nM)
Quick note: give the figure in nM, leave out the unit.

Prompt: Item COc1cc(N2CCNC[C@@H]2C)ncc1-c1cnc(N)c(O[C@H](C)c2c(Cl)ccc(F)c2Cl)c1 with G1269S mutated ALK kinase (Homo sapiens (Human), UniProt Q9UM73, G1269S) - IC50?
Completion: 61.3

====

pIC50: −log10 of the molar value.
For reference, pIC50 measured on CYP-3A4 (Homo sapiens (Human), UniProt P08684):

COc1cc(N2CCNC[C@@H]2C)ncc1-c1cnc(N)c(O[C@H](C)c2c(Cl)ccc(F)c2Cl)c1 :: < 5.00

We now examine a further molecule.
Prompt: Please give the measured pIC50 for this molecule: COc1cc(-c2cnc(N)c(O[C@H](C)c3c(Cl)ccc(F)c3Cl)c2)cnc1C1=CCNCC1
Completion: < 5.00

====

Experiment: In vivo pharmacokinetics in SD rats
Conditions: Sprague-Dawley, rat, po, 5 mg/kg
Entries and their Tmax
Numeric answer plus unit only.

COc1cc(N2CCNC[C@@H]2C)ncc1-c1cnc(N)c(O[C@H](C)c2c(Cl)ccc(F)c2Cl)c1 [Example 27] :: 3.67 h

Prompt: Please give the measured Tmax for this compound: CCOc1cc(N2CCNC[C@@H]2C)ncc1-c1cnc(N)c(O[C@H](C)c2c(Cl)ccc(F)c2Cl)c1 [Example 53]
Completion: 3.33 h
